B1: CIB1 (parent)
chain: DLSRLVNCLTGEGEDTRLSASEMK

variants of: B1; assay: protein stability index of a GFP-peptide fusion (GPS, HEK-293T) (PSI 1-6); higher = more stable; conditions: c terminus: a fixed tail appended;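 note: lentivirally expressed fusions sorted by FACS into six bins by GFP to DsRed ratio, PSI derived from sequencing read proportions per bin multiplied by bin number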
Parameter protein stability index: see the listing below.
The response must contain the number and no unit.

Using the record for `T16P` , report its protein stability index. 4.07

Using the record for `S21R` , report its protein stability index. 1.9
